The reported measurements were obtained from patent US20020111274A1.

Test system: CASOB Sicklepod
measurement-notes: Postemergence herbicidal evaluation, CASOB
Assay type: in vivo, Cassia obtusifolia, L.
Set-up: scale not given here
conditions: 0.032 kg/ha, postemergence spray, rated about two-three weeks after treatment
value-kind: Postemergence herbicidal rating CASOB
Please give only the number in your answer, with no unit.

Reported Postemergence herbicidal rating CASOB for Cn1c(C(F)(F)F)cc(=O)n(-c2cc3c(cc2F)nnn3-c2ccc(OCC(=O)O)cc2)c1=O [Example 44] was 1.0

Reported Postemergence herbicidal rating CASOB for COC(=O)COc1ccc(-n2nnc3cc(F)c(-n4c(=O)cc(C(F)(F)F)n(C)c4=O)cc32)c(C)c1 [Example 39] was 0.0

Reported Postemergence herbicidal rating CASOB for Cc1ccc(O)c(-n2nnc3cc(F)c(-n4c(=O)cc(C(F)(F)F)n(C)c4=O)cc32)c1 [Example 31] was 0.0

Reported Postemergence herbicidal rating CASOB for CC(C)c1ccc(-n2nnc3cc(F)c(-n4c(=O)cc(C(F)(F)F)n(C)c4=O)cc32)cc1 [Example 21] was 1.0

* * *

Tested on: GALAP Galium
measurement-notes: Preemergence herbicidal evaluation, GALAP
Assay type: in vivo, Galium aparine
Design: scale not given here
conditions: preemergence, rate 0.062 kg/ha
Please respond with reported GALAP herbicidal rating for every item in the list.

Reported GALAP herbicidal rating for COc1ccc(-n2nnc3cc(F)c(-n4c(=O)cc(C(F)(F)F)n(C)c4=O)cc32)c(C)c1 was 0.0

Reported GALAP herbicidal rating for COC(=O)COc1ccc(C)c(-n2nnc3cc(F)c(-n4c(=O)cc(C(F)(F)F)n(C)c4=O)cc32)c1 was 0.0

Reported GALAP herbicidal rating for Cc1ccc(-n2nnc3cc(F)c(-n4c(=O)cc(C(F)(F)F)n(C)c4=O)cc32)cc1 was 0.0

Reported GALAP herbicidal rating for COc1ccc(Cl)cc1-n1nnc2cc(F)c(-n3c(=O)cc(C(F)(F)F)n(C)c3=O)cc21 was 3.0

Reported GALAP herbicidal rating for COC(=O)COc1ccccc1-n1nnc2cc(F)c(-n3c(=O)cc(C(F)(F)F)n(C)c3=O)cc21 was 0.0

Reported GALAP herbicidal rating for CCc1cccc(-n2nnc3cc(F)c(-n4c(=O)cc(C(F)(F)F)n(C)c4=O)cc32)c1 was 1.0

Reported GALAP herbicidal rating for CCc1ccccc1-n1nnc2cc(F)c(-n3c(=O)cc(C(F)(F)F)n(C)c3=O)cc21 was 0.0

Reported GALAP herbicidal rating for Cc1ccc(O)c(-n2nnc3cc(F)c(-n4c(=O)cc(C(F)(F)F)n(C)c4=O)cc32)c1 was 0.0

Reported GALAP herbicidal rating for COC(=O)COc1ccc(-n2nnc3cc(F)c(-n4c(=O)cc(C(F)(F)F)n(C)c4=O)cc32)c(C)c1 was 0.0

Reported GALAP herbicidal rating for CC(C)c1ccc(-n2nnc3cc(F)c(-n4c(=O)cc(C(F)(F)F)n(C)c4=O)cc32)cc1 was 0.0

Reported GALAP herbicidal rating for C#CCOC(=O)COc1ccc(C)c(-n2nnc3cc(F)c(-n4c(=O)cc(C(F)(F)F)n(C)c4=O)cc32)c1 was 0.0

Reported GALAP herbicidal rating for C=CCOc1ccc(C)cc1-n1nnc2cc(F)c(-n3c(=O)cc(C(F)(F)F)n(C)c3=O)cc21 was 0.0

* * *

System: IPOHE Morningglory, Ivyleaf
measurement-notes: Preemergence herbicidal evaluation, IPOHE
Assay type: in vivo, Ipomoea hederacea, (L.) Jacq.
Set-up: scale not given here
conditions: preemergence, rate 0.125 kg/ha
Please respond with reported IPOHE herbicidal rating for every item in the list.
Please give only the number in your answer, with no unit.

Reported IPOHE herbicidal rating for CC(C)c1ccc(-n2nnc3cc(F)c(-n4c(=O)cc(C(F)(F)F)n(C)c4=O)cc32)cc1 was 3.5

Reported IPOHE herbicidal rating for Cc1ccc(O)c(-n2nnc3cc(F)c(-n4c(=O)cc(C(F)(F)F)n(C)c4=O)cc32)c1 was 0.0

Reported IPOHE herbicidal rating for CCc1ccc(-n2nnc3cc(F)c(-n4c(=O)cc(C(F)(F)F)n(C)c4=O)cc32)cc1 was 9.0

Reported IPOHE herbicidal rating for CCc1ccccc1-n1nnc2cc(F)c(-n3c(=O)cc(C(F)(F)F)n(C)c3=O)cc21 was 6.5

Reported IPOHE herbicidal rating for COc1ccc(C)cc1-n1nnc2cc(F)c(-n3c(=O)cc(C(F)(F)F)n(C)c3=O)cc21 was 9.0

Reported IPOHE herbicidal rating for CCc1cccc(-n2nnc3cc(F)c(-n4c(=O)cc(C(F)(F)F)n(C)c4=O)cc32)c1 was 7.0

Reported IPOHE herbicidal rating for Cc1ccc(-n2nnc3cc(F)c(-n4c(=O)cc(C(F)(F)F)n(C)c4=O)cc32)cc1 was 8.0

Reported IPOHE herbicidal rating for COc1ccc(Cl)cc1-n1nnc2cc(F)c(-n3c(=O)cc(C(F)(F)F)n(C)c3=O)cc21 was 3.0

Reported IPOHE herbicidal rating for Cc1cc(O)ccc1-n1nnc2cc(F)c(-n3c(=O)cc(C(F)(F)F)n(C)c3=O)cc21 was 0.0

Reported IPOHE herbicidal rating for COC(=O)COc1ccc(C)cc1-n1nnc2cc(F)c(-n3c(=O)cc(C(F)(F)F)n(C)c3=O)cc21 was 9.0

Reported IPOHE herbicidal rating for COC(=O)C(C)Oc1ccc(C)cc1-n1nnc2cc(F)c(-n3c(=O)cc(C(F)(F)F)n(C)c3=O)cc21 (stereo not shown) was 9.0

Reported IPOHE herbicidal rating for COC(=O)COc1ccc(-n2nnc3cc(F)c(-n4c(=O)cc(C(F)(F)F)n(C)c4=O)cc32)c(C)c1 was 3.0

Reported IPOHE herbicidal rating for Cc1ccccc1-n1nnc2cc(F)c(-n3c(=O)cc(C(F)(F)F)n(C)c3=O)cc21 was 4.5

Reported IPOHE herbicidal rating for CCc1ccc(-n2nnc3cc(F)c(-n4c(=O)cc(C(F)(F)F)n(C)c4=O)cc32)cc1COC was 1.0

Reported IPOHE herbicidal rating for COc1ccc(-n2nnc3cc(F)c(-n4c(=O)cc(C(F)(F)F)n(C)c4=O)cc32)cc1 was 5.0

Reported IPOHE herbicidal rating for COC(=O)COc1ccccc1-n1nnc2cc(F)c(-n3c(=O)cc(C(F)(F)F)n(C)c3=O)cc21 was 9.0

Reported IPOHE herbicidal rating for C#CCOC(=O)COc1ccc(C)cc1-n1nnc2cc(F)c(-n3c(=O)cc(C(F)(F)F)n(C)c3=O)cc21 was 9.0

Reported IPOHE herbicidal rating for COc1ccc(-n2nnc3cc(F)c(-n4c(=O)cc(C(F)(F)F)n(C)c4=O)cc32)c(C)c1 was 0.0

Reported IPOHE herbicidal rating for COCc1ccccc1-n1nnc2cc(F)c(-n3c(=O)cc(C(F)(F)F)n(C)c3=O)cc21 was 9.0

* * *

System: GLXMAW Soybean, Williams
measurement-notes: Postemergence herbicidal evaluation, GLXMAW
Type: in vivo, Glycine max, (L.) Merr. cv Williams
Parameters: scale not given here
conditions: 0.016 kg/ha, postemergence spray, rated about two-three weeks after treatment
value-kind: Postemergence herbicidal rating GLXMAW
Please give only the number in your answer, with no unit.

Reported GLXMAW Soybean, Williams Postemergence herbicidal rating GLXMAW for item CC(C)c1ccc(-n2nnc3cc(F)c(-n4c(=O)cc(C(F)(F)F)n(C)c4=O)cc32)cc1 was 5.0

Reported GLXMAW Soybean, Williams Postemergence herbicidal rating GLXMAW for item COC(=O)COc1ccc(C)c(-n2nnc3cc(F)c(-n4c(=O)cc(C(F)(F)F)n(C)c4=O)cc32)c1 was 5.5

Reported GLXMAW Soybean, Williams Postemergence herbicidal rating GLXMAW for item Cc1ccc(O)cc1-n1nnc2cc(F)c(-n3c(=O)cc(C(F)(F)F)n(C)c3=O)cc21 was 2.5

Reported GLXMAW Soybean, Williams Postemergence herbicidal rating GLXMAW for item COc1ccc(C)cc1-n1nnc2cc(F)c(-n3c(=O)cc(C(F)(F)F)n(C)c3=O)cc21 was 4.5

Reported GLXMAW Soybean, Williams Postemergence herbicidal rating GLXMAW for item Cc1cc(O)ccc1-n1nnc2cc(F)c(-n3c(=O)cc(C(F)(F)F)n(C)c3=O)cc21 was 3.5

Reported GLXMAW Soybean, Williams Postemergence herbicidal rating GLXMAW for item C#CCOC(=O)COc1ccc(C)cc1-n1nnc2cc(F)c(-n3c(=O)cc(C(F)(F)F)n(C)c3=O)cc21 was 6.0

Reported GLXMAW Soybean, Williams Postemergence herbicidal rating GLXMAW for item COc1ccc(-n2nnc3cc(F)c(-n4c(=O)cc(C(F)(F)F)n(C)c4=O)cc32)c(C)c1 was 3.5

Reported GLXMAW Soybean, Williams Postemergence herbicidal rating GLXMAW for item C#CCOC(=O)COc1ccc(C)c(-n2nnc3cc(F)c(-n4c(=O)cc(C(F)(F)F)n(C)c4=O)cc32)c1 was 4.0

Reported GLXMAW Soybean, Williams Postemergence herbicidal rating GLXMAW for item COC(=O)COc1ccccc1-n1nnc2cc(F)c(-n3c(=O)cc(C(F)(F)F)n(C)c3=O)cc21 was 4.5

Reported GLXMAW Soybean, Williams Postemergence herbicidal rating GLXMAW for item CCc1ccc(-n2nnc3cc(F)c(-n4c(=O)cc(C(F)(F)F)n(C)c4=O)cc32)cc1 was 5.5

Reported GLXMAW Soybean, Williams Postemergence herbicidal rating GLXMAW for item COc1ccc(-n2nnc3cc(F)c(-n4c(=O)cc(C(F)(F)F)n(C)c4=O)cc32)cc1 was 6.0

Reported GLXMAW Soybean, Williams Postemergence herbicidal rating GLXMAW for item COc1ccc(C)c(-n2nnc3cc(F)c(-n4c(=O)cc(C(F)(F)F)n(C)c4=O)cc32)c1 was 4.5
